Measured KD^WT/KD, listed per entry.
Target: T1, Clostridium difficile toxin A (TcdA) (Clostridium difficile, UniProt P16154 1-2710)
T1 construct: mature; also called full-length TcdA
T1 sequence (P16154 whole entry): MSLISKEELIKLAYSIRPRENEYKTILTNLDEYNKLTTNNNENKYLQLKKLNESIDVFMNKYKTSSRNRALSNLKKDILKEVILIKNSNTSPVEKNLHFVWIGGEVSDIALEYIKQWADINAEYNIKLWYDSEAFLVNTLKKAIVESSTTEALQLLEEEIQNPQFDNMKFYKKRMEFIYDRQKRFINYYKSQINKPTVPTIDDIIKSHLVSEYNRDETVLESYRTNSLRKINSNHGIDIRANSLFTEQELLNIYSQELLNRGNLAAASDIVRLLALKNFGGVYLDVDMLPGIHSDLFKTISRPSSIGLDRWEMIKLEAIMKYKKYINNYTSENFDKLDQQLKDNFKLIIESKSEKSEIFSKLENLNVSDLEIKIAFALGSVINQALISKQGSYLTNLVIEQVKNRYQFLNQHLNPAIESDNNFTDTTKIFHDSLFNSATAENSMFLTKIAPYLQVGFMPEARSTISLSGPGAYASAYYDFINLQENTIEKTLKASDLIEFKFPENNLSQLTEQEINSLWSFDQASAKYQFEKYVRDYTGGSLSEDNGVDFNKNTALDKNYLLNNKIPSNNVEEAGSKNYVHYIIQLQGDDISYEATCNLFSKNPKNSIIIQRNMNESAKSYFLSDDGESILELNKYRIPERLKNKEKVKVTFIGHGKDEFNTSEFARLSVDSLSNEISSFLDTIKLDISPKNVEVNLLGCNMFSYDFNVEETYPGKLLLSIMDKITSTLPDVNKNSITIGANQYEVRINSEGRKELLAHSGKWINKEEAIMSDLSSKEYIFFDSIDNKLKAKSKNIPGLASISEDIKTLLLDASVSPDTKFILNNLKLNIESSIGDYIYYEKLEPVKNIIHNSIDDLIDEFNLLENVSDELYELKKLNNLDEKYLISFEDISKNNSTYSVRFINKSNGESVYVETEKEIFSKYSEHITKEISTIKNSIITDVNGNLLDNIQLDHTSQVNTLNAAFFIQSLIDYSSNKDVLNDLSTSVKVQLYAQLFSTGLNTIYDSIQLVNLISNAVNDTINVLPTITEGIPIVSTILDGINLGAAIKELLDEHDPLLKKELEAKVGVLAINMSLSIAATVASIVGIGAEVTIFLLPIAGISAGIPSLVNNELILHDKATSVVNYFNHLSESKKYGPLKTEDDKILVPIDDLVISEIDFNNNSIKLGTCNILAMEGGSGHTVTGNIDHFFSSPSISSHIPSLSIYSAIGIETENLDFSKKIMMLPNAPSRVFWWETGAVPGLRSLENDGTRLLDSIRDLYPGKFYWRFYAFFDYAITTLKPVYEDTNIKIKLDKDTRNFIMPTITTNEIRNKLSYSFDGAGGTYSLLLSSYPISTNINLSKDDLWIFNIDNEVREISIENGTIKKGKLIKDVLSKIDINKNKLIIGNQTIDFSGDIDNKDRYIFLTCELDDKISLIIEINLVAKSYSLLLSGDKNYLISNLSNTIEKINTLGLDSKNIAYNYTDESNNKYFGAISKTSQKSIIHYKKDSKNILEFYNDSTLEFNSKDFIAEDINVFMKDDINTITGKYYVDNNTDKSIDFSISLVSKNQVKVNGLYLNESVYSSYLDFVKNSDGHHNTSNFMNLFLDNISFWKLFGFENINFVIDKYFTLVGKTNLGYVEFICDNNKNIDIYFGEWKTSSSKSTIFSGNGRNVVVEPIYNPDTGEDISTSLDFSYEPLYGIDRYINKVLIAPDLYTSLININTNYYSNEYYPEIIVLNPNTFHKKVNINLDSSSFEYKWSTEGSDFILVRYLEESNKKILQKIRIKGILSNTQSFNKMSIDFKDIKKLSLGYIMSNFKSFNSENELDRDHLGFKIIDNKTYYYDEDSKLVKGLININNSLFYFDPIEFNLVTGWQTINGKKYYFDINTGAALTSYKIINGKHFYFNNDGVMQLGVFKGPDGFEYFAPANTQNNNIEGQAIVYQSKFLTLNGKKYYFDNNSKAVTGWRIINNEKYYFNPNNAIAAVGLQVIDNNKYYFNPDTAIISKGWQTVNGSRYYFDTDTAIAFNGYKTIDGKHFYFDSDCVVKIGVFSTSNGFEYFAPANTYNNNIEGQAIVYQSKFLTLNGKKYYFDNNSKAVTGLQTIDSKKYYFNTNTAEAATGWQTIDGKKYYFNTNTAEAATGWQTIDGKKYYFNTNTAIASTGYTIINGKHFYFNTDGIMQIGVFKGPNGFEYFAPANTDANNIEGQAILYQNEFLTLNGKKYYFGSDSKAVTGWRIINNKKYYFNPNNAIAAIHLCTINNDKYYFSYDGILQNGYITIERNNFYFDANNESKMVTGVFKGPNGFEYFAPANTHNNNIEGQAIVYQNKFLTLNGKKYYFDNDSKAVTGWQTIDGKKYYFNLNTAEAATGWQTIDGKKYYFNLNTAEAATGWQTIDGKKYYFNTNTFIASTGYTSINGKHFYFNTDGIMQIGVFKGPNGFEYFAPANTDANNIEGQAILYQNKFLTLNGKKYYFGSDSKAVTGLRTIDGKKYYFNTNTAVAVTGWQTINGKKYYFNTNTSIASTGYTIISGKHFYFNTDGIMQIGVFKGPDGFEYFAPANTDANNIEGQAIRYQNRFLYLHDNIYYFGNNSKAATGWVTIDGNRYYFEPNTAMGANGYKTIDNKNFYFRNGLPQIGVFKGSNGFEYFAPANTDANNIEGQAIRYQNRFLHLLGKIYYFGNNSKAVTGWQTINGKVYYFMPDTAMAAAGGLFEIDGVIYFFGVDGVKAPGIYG
Test: SPR (Biacore 3000), VHH over immobilized TcdA; ratio of parent KD to mutant KD
Give your answer as a number; write no unit.

| binder | quantitative-readout |
| --- | --- |
| A26.8-T56R, Q101K, T103R (VHH, not shown: small tags and cut ends, also called lead triple mutant; best triple mutant) VHH: QVKLEESGGGLVQAGGSLRLSCAASERTFSRYPVAWFRQAPGAEREFVAVISSTGRSTYYADSVKGRFTISRDNAKVTVYLQMNNLKREDTAVYFCAVNSKRRRLQDPNEYDYWGQGTQVTVSS | 9.4 |
| A26.8-T54R (VHH, not shown: small tags and cut ends) VHH: QVKLEESGGGLVQAGGSLRLSCAASERTFSRYPVAWFRQAPGAEREFVAVISSRGTSTYYADSVKGRFTISRDNAKVTVYLQMNNLKREDTAVYFCAVNSQRTRLQDPNEYDYWGQGTQVTVSS | 1.4 |
| A26.8 VHH mutant Q106W (VHH, not shown: small tags and cut ends) VHH: QVKLEESGGGLVQAGGSLRLSCAASERTFSRYPVAWFRQAPGAEREFVAVISSTGTSTYYADSVKGRFTISRDNAKVTVYLQMNNLKREDTAVYFCAVNSQRTRLWDPNEYDYWGQGTQVTVSS | 0.01 |

Problem: Which KD^WT/KD value is on record for A26.8 VHH mutant E110Q (VHH, not shown: small tags and cut ends) VHH: QVKLEESGGGLVQAGGSLRLSCAASERTFSRYPVAWFRQAPGAEREFVAVISSTGTSTYYADSVKGRFTISRDNAKVTVYLQMNNLKREDTAVYFCAVNSQRTRLQDPNQYDYWGQGTQVTVSS ?
Solution: 0.6
